Test: Clearance in dog at 1 mg/kg, iv measured upto 24 hrs by LC-MS/MS anlaysis
Type: ADME, organism-based, Canis lupus familiaris
Conditions: in vivo
REPORTED_METRIC: clearance (mL/min/kg)

(A) FC(F)c1c(Br)c(Br)cc2c1nc(N1CCNCC1)n2C1CCOCC1
(B) Cc1c(Br)c(Br)c2c3c1nc(N1CCNCC1)n3CCC2 [SEL-120 FREE BASE]
Of the two listed items, which has the higher clearance? First: A Second: B // respond with label for picked entry
B

* * *

Assay: Oral bioavailability in rat at 5 mg/kg measured upto 24 hrs by LC-MS/MS analysis
Format: ADME, organism-based
Conditions: in vivo
REPORTED_METRIC: bioavailability (%)
Could you give me the number in %? Just the number is fine.

# bioavailability of Cc1c(Br)c(Br)c2c3c1nc(N1CCNCC1)n3CCC2 [SEL-120 FREE BASE] = 20
